Value source: paper PMC4980432

Biological target: T1, Y. lipolytica F1Fo-ATP synthase subunit α (Yarrowia lipolytica, UniProt Q6C326 25-536)
T1 construct: subunit α of the mitochondrial F1Fo-ATP synthase, Yarrowia lipolytica; three copies in each F1 head, in the states αE, αTP and αDP; also called αE; αTP; source: endogenous, purified from Y. lipolytica mitochondria as part of 2YLF1Fo, 1YLF1Fo and the YLF1c10 subcomplex
T1 sequence (Q6C326 25-536): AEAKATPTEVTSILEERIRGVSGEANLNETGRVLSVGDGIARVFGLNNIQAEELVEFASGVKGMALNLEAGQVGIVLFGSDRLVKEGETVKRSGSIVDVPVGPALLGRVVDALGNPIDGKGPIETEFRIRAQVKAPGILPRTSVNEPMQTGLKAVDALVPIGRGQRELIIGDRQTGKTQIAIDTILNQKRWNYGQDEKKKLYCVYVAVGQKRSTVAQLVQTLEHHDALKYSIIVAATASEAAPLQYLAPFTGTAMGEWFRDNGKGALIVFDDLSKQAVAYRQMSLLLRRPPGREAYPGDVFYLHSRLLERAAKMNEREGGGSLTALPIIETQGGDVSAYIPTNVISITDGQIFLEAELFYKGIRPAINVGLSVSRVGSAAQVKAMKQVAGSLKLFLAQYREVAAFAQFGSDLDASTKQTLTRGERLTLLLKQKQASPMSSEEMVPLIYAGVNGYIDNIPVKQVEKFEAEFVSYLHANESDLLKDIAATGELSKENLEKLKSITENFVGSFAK
Test: cryo-EM structure; single-particle cryo-EM of the purified dimer 2YLF1Fo; C2 symmetry imposed; 7.8 Å overall, 6.9 Å for F1 and 6.2 Å for the Fo dimer after masking; fitted with the YLF1c10 X-ray structure and homology models of the peripheral stalk
Details: both partners purified
measurementName: binding result

[[record]]
binder = "Y. lipolytica F1Fo-ATP synthase subunit d (natural protein, Yarrowia lipolytica, UniProt Q6CFH9 1-176, looked up, peripheral stalk subunit d of the mitochondrial F1Fo-ATP synthase, Yarrowia lipolytica; also called d subunit; source: endogenous, purified from Y. lipolytica mitochondria as part of 2YLF1Fo) MSVAAARSSAVKVDWGKIVSSLGLTGATVSSLQAFRKRHEEAKKNAYELQNQPTTVDFAHYRKVLKNQKVVDEIEQHFKSFKPVTYDVSKQLKTIDAFEAKAIEDAKATEGKVNQEIGDLQKTLENIESARPFDQLSVDDVFKARPDLEKKIEEMVKKGRWSVPGYNEKFGSVVLM"
measurementname = "binding result"
reported = "binds"

[[record]]
binder = "Y. lipolytica F1Fo-ATP synthase subunit OSCP (natural protein, Yarrowia lipolytica, UniProt Q6C9B1 25-214, looked up, peripheral stalk subunit OSCP of the mitochondrial F1Fo-ATP synthase, Yarrowia lipolytica; source: endogenous, purified from Y. lipolytica mitochondria as part of 2YLF1Fo) APVKVPVQLFGLDGTYATALYTAAAKESDLSKTEGSLAKLRDVFAQQPEVAQIVSNPTLSHEDKQTVVNVLSQAVGGDKTLTNFLTVISDNNRLALIPGIIEKFETLVNASKGLVEATVTSASELDKKTVNRIQAAIAGSSFVGEGELKLNLKVNPDILGGLIVEVAERTVDVSVASKIARLNHVLSEPI"
measurementname = "binding result"
reported = "binds"

[[record]]
binder = "Y. lipolytica F1Fo-ATP synthase subunit b (natural protein, Yarrowia lipolytica, UniProt Q6C105 15-217, looked up, subunit b of the mitochondrial F1Fo-ATP synthase, Yarrowia lipolytica; two trans-membrane helices at its N terminus; also called peripheral stalk subunit b; source: endogenous, purified from Y. lipolytica mitochondria as part of 2YLF1Fo) SNQVDPKVKATSILDSIPGNNVLSKTGVLATGVLGSIYAISNELYIVNDESIVLGVFAAFVVVVAKLGGPGYTSWADGYIENMRNILNTTRDKHTDAVKERIGDVSKLKDVVKTTQDLFAVSKDTVKLEAEVFETKQQVVLAAEAKSVLDSWVRYENSVRQREQKLLTETVISKIEKDLKDPKFQQKILQQSVEDIEKLFAKA"
measurementname = "binding result"
reported = "binds"

